System: S. aureus strain USA300-0114
assayMethodText: AK assay 384-well format, Prestwick library screening
Format: cell-based, Staphylococcus aureus
measurementSetup: Staphylococcus aureus, USA300, 3 h; 50 μM final drug concentration; 384-well format; cutoff for positive-scoring molecules 3-fold increase; read-out: AK-based Prestwick Library Screening Results, S. aureus (increase in extracellular AK activity)
Where a name gives a salt, the structure may show the parent alone.
Exercise: state measured fold induction at 50 µM for each of the compounds provided.
Give bare numbers.

The following compounds have reported results that may help.
- CCCCNc1cc(C(=O)O)cc(S(N)(=O)=O)c1Oc1ccccc1 [Bumetanide]: 0.7
- c1ccc(CN(CC2=NCCN2)c2ccccc2)cc1 [Antazoline hydrochloride]: 0.8
- CC(=O)S[C@@H]1CC2=CC(=O)CC[C@]2(C)[C@H]2CC[C@@]3(C)[C@@H](CC[C@@]34CCC(=O)O4)[C@H]12 [Spironolactone]: 1.2
- COc1cc(C)nc(-n2nc(C)cc2OC)n1 [Epirizole]: 2.2
- Cc1cc(NC(=O)C2=C(O)c3ccccc3S(=O)(=O)N2C)no1 [Isoxicam]: 1

Please state fold induction at 50 µM for every compound in the list that follows.
1. COC(=O)Nc1nc2ccc(C(=O)c3cccs3)cc2[nH]1 [Nocodazole]
2. NS(=O)(=O)c1cc2c(cc1C(F)(F)F)NCNS2(=O)=O [Hydroflumethiazide]
3. CCn1cc(C(=O)O)c(=O)c2cc3c(cc21)OCO3 [Oxolinic acid]
4. C[C@]12C=CC(=O)C=C1CC[C@H]1[C@@H]3C[C@@H](O)[C@](O)(C(=O)CO)[C@@]3(C)C[C@H](O)[C@@]12F [Triamcinolone]
5. O=C(O)COC(=O)Cc1ccccc1Nc1c(Cl)cccc1Cl [Aceclofenac]
6. CCC1(C)CC(=O)NC1=O (stereo not shown) [Ethosuximide]

Output:
1: 0.6; 2: 0.5; 3: 1; 4: 0.8; 5: 0.7; 6: 0.5

Below are 2 compounds. Give each one its fold induction at 50 µM.
1. CCCc1ncc(C[n+]2ccccc2C)c(N)n1 [Amprolium hydrochloride]
2. Clc1ccc(C(Cn2ccnc2)OCc2c(Cl)cccc2Cl)c(Cl)c1 (stereo not shown) [Isoconazole]

Output:
1: 0.5; 2: 5.2

All values here come from patent US10004701B2.
